system: Echinochloa crus-galli (ECHCG); experiment: Glasshouse assay for herbicidal activity, pre-/post-emergence (percentage phytotoxicity); assay type: in vivo; conditions: Echinochloa crus-galli, pre-emergence, 480 h, Rate 250 g/ha; pre-emergence; visual assessment 20 DAA; 100%=total damage, 0%=no damage; read-out: Pre-emergence herbicidal activity (percentage phytotoxicity), ECHCG PRE
assay_metric: pest or weed control at 250 g/ha (%)
Please reply with the bare figure in % and do not write the unit itself.

compound	pest or weed control at 250 g/ha, %
Cc1cc(C)c(C2C(=O)CC(CCNS(=O)(=O)c3ccc(Cl)cc3)C2=O)c(C)c1 (stereo not shown)	70
CC#Cc1cc(C)c(C2C(=O)CC(CCNC(=O)C3=NOC(C)(C)C3)C2=O)c(C)c1 (stereo not shown)	100
Cc1cc(-n2cc(Cl)cn2)cc(C)c1C1C(=O)CC(CCNc2ccc(C(F)(F)F)cn2)C1=O (stereo not shown)	90

Read the next record carefully.
Given the entry Cc1cc(C)c(C2C(=O)CC(CCNS(=O)(=O)c3ccc(OC(F)(F)F)cc3)C2=O)c(C)c1 (stereo not shown) , report its measured pest or weed control at 250 g/ha.
70

----------
Reported values of pest or weed control at 250 g/ha for individual entries
tested on: Echinochloa crus-galli (ECHCG); test: Glasshouse assay for herbicidal activity, pre-/post-emergence (percentage phytotoxicity); format: in vivo; details: Echinochloa crus-galli, pre-emergence, 480 h, Rate 250 g/ha; pre-emergence; visual assessment 20 DAA; 100%=total damage, 0%=no damage; read-out: Pre-emergence herbicidal activity (percentage phytotoxicity), ECHCG PRE
Please reply with the bare figure in % and do not write the unit itself.

Worked examples, 5 compounds total:
compound	pest or weed control at 250 g/ha, %
Cc1cc(C)c(C2C(=O)CC(CCNc3ncc(Cl)cn3)C2=O)c(C)c1 (stereo not shown)	90
Cc1cc(C)c(C2C(=O)CC(CCNC(=O)NC(=O)c3ccc(C(F)(F)F)c(F)c3)C2=O)c(C)c1 (stereo not shown)	30
Cc1cc(C)c(C2C(=O)CC(CCNC(=O)NC(C)(C)C)C2=O)c(C)c1 (stereo not shown)	90
Cc1cc(-n2cc(Cl)cn2)cc(C)c1C1C(=O)CC(CCNC(=O)NOC(C)(C)C)C1=O (stereo not shown)	50
Cc1cc(C)c(C2C(=O)CC(CCNS(=O)(=O)c3ccccc3C(F)(F)F)C2=O)c(C)c1 (stereo not shown)	60

Form field - read-out: pest or weed control at 250 g/ha; system: Echinochloa crus-galli (ECHCG); submitted item: Cc1cc(C)c(C2C(=O)C[C@H](CCNC(=O)C3=NOC(C)(C)C3)C2=O)c(C)c1 (stereo partly shown)
60

Form field - read-out: pest or weed control at 250 g/ha; system: Echinochloa crus-galli (ECHCG); submitted item: Cc1cc(C)c(C2C(=O)CC(CCNS(=O)(=O)c3cccs3)C2=O)c(C)c1 (stereo not shown)
30

Form field - read-out: pest or weed control at 250 g/ha; system: Echinochloa crus-galli (ECHCG); submitted item: Cc1cc(C)c(C2C(=O)CC(CCNC(=O)NC(=O)c3cc(F)c(Cl)cc3Cl)C2=O)c(C)c1 (stereo not shown)
70

----------
test system: wheat; assay: Post-emergence herbicidal activity against cereal crops (wheat) +/- safener, crop selectivity; format: in vivo; conditions: 250 g/ha, plus safener cloquintocet-mexyl (CQC) applied at 50 g/ha, 100%=total damage to plant, 0%=no damage
assay_metric: Post-emergence herbicidal activity against wheat (percentage phytotoxicity), +CQC (%)
Please reply with the bare figure in % and do not write the unit itself.

Worked examples, 4 compounds total:
compound	quantitative_readout
Cc1cc(C)c(C2C(=O)CC(CCNC(=O)NC(=O)c3ccccc3C)C2=O)c(C)c1 (centres unmarked)	90
Cc1cc(C)c(C2C(=O)CC(CCNC(=O)NC(=O)c3ccccc3C#N)C2=O)c(C)c1 (centres unmarked)	0
Cc1cc(C)c(C2C(=O)CC(CCNS(=O)(=O)c3ccccc3Cl)C2=O)c(C)c1 (centres unmarked)	0
Cc1cc(C)c(C2C(=O)CC(CCNC(=O)NC(C)(C)C)C2=O)c(C)c1 (centres unmarked)	20

Given the entry Cc1cc(C)c(C2C(=O)CC(CCNC(=O)NC(=O)c3ccc(F)c(F)c3)C2=O)c(C)c1 (centres unmarked) , report its measured Post-emergence herbicidal activity against wheat (percentage phytotoxicity), +CQC.
70

Given the entry Cc1cc(C)c(C2C(=O)CC(CCNC(=O)N(C)C(C)(C)C)C2=O)c(C)c1 (centres unmarked) , report its measured Post-emergence herbicidal activity against wheat (percentage phytotoxicity), +CQC.
30

Given the entry Cc1cc(C)c(C2C(=O)CC(CCNC(=O)NC(=O)c3ccc(Cl)cc3F)C2=O)c(C)c1 (centres unmarked) , report its measured Post-emergence herbicidal activity against wheat (percentage phytotoxicity), +CQC.
80

Given the entry Cc1cc(C)c(C2C(=O)CC(CCNc3nc4ccc(Cl)cc4o3)C2=O)c(C)c1.Cl (centres unmarked) , report its measured Post-emergence herbicidal activity against wheat (percentage phytotoxicity), +CQC.
60

----------
Reported values of pest or weed control at 250 g/ha for individual entries
System: Echinochloa crus-galli (ECHCG)
Assay: Glasshouse assay for herbicidal activity, pre-/post-emergence (percentage phytotoxicity)
Type: in vivo
Conditions: Echinochloa crus-galli, post-emergence, 360 h, Rate 250 g/ha; post-emergence; visual assessment 15 DAA; 100%=total damage, 0%=no damage; read-out: Post-emergence herbicidal activity (percentage phytotoxicity), ECHCG POST
Method: Seeds of a variety of monocotyledonous and dicotyledonous test plants are sown in standard soil in pots. […] 15 days after application of the test herbicide (15DAA) (for post-emergence), and 20 days after application of the test herbicide (20DAA) (for pre-emergence), the test plants are evaluated visually, and an assessed percentage phytotoxicity score is given for each herbicidal application on each plant species (with 100%=total damage to plant; 0%=no damage to plant). […]
Please reply with the bare figure in % and do not write the unit itself.

compound	pest or weed control at 250 g/ha [%]
Cc1cc(C)c(C2C(=O)CC(CCNc3ccc([N+](=O)[O-])cc3)C2=O)c(C)c1 (centres unmarked)	90
Cc1cc(-n2cc(Cl)cn2)cc(C)c1C1C(=O)CC(CCNC(=O)Nc2ccccn2)C1=O.Cl (centres unmarked)	100
CON=C(C)C(=O)NCCC1CC(=O)C(c2c(C)cc(C)cc2C)C1=O (centres unmarked)	50
Cc1cc(-n2cc(Cl)cn2)cc(C)c1C1C(=O)CC(CCNC(=O)C2=NOC(C)(C)C2)C1=O (centres unmarked)	100
Cc1cc(C)c(C2C(=O)CC(CCNC(=O)Nc3ccccc3)C2=O)c(C)c1 (centres unmarked)	80
Cc1cc(-c2ncc(F)cn2)cc(C)c1C1C(=O)CC(CCNc2ccc(C(F)(F)F)cn2)C1=O (centres unmarked)	100

Given the entry Cc1cc(-c2ncc(F)cc2F)cc(C)c1C1C(=O)CC(CCNC(=O)C2=NOC(C)(C)C2)C1=O (centres unmarked) , report its measured pest or weed control at 250 g/ha.
100

Given the entry Cc1cc(C)c(C2C(=O)CC(CCNS(=O)(=O)c3ccc(F)c(Cl)c3)C2=O)c(C)c1 (centres unmarked) , report its measured pest or weed control at 250 g/ha.
30

----------
Reported values of pest or weed control at 250 g/ha for individual entries
tested on: Alopecurus myosuroides (ALOMY); experiment: Glasshouse assay for herbicidal activity, pre-/post-emergence (percentage phytotoxicity); format: in vivo; settings: Alopecurus myosuroides, 360 h; Rate 250 g/ha; post-emergence; visual assessment 15 DAA; 100%=total damage, 0%=no damage; read-out: Post-emergence herbicidal activity (percentage phytotoxicity), ALOMY POST

Worked examples, 3 compounds total:
compound	study_target	result
Cc1cc(C)c(C2C(=O)CC(CCNC(=O)NC(=O)c3cc(C(F)(F)F)ccc3Cl)C2=O)c(C)c1 (stereo not shown)	Alopecurus myosuroides (ALOMY)	90%
Cc1cc(C)c(C2C(=O)CC(CCNC(=O)NC(=O)c3cc(F)ccc3C(F)(F)F)C2=O)c(C)c1 (stereo not shown)	Alopecurus myosuroides (ALOMY)	100%
Cc1cc(-c2ncc(F)cn2)cc(C)c1C1C(=O)CC(CCNc2ccc(C(F)(F)F)cn2)C1=O (stereo not shown)	Alopecurus myosuroides (ALOMY)	90%

Form field - read-out: pest or weed control at 250 g/ha; system: Alopecurus myosuroides (ALOMY); submitted item: Cc1cc(C)c(C2C(=O)CC(CCNC(=O)NC(=O)c3ccc(Cl)c(F)c3)C2=O)c(C)c1 (stereo not shown)
40%

Form field - read-out: pest or weed control at 250 g/ha; system: Alopecurus myosuroides (ALOMY); submitted item: Cc1cc(C)c(C2C(=O)CC(CCNC(=O)N(C)c3ccccc3)C2=O)c(C)c1 (stereo not shown)
80%

Form field - read-out: pest or weed control at 250 g/ha; system: Alopecurus myosuroides (ALOMY); submitted item: Cc1cc(C)c(C2C(=O)CC(CCNc3ccc(C#N)cc3C(F)(F)F)C2=O)c(C)c1 (stereo not shown)
90%

Form field - read-out: pest or weed control at 250 g/ha; system: Alopecurus myosuroides (ALOMY); submitted item: Cc1cc(C)c(C2C(=O)CC(CCNC(=O)NC(=O)c3cc(F)c(Cl)cc3Cl)C2=O)c(C)c1 (stereo not shown)
100%
